In this section, each of the compounds is paired with its reported CC50.
test system: MT4; assay: Cytotoxic dose required to reduce the viability of normal uninfected MT-4 cells.; type: functional; conditions: Homo sapiens, read-out: CD50 (the source's name)

These solved cases illustrate the format of a correct answer.
compound	CC50
CNc1ccn(C2CC(N=[N+]=[N-])C(CO)O2)c(=O)n1 (stereo unspecified)	> 1000 µM
C#CC1C(CO)OC(n2cc(C)c(=O)[nH]c2=O)C1O (stereo unspecified)	> 500 µM
Cc1ccc(SC2CC(n3cc(C)c(=O)[nH]c3=O)OC2CO)cc1 (stereo unspecified)	116 µM
CNc1nc(=O)n(C2CC(N=[N+]=[N-])C(CO)O2)cc1C (stereo unspecified)	> 1000 µM
Cc1cn([C@H]2C[C@H](SS[C@H]3C[C@H](n4cc(C)c(O)nc4=O)O[C@@H]3CO)[C@@H](CO)O2)c(=O)nc1O	34 µM

// CC50 value for "O=c1ccn([C@H]2C[C@H](F)[C@@H](CO)O2)c(=O)[nH]1" : 16 µM

The recorded CC50 for Nc1nc(O)c2ncn(C3C=CC(CO)O3)c2n1 (stereo unspecified) is 11 µM

get_value(item= "Nc1nc(O)c2ncn([C@H]3C[C@H](O)[C@@H](CO)O3)c2n1" , readout=CC50) returns > 500 µM

compound "Nc1nc(N)c2ncn([C@H]3C[C@H](O)[C@@H](CO)O3)c2n1" , CC50 observed: > 625 µM

* * *

tested on: MT4; assay: Cytotoxic dose required to reduce the viability of normal uninfected MT-4 cells.; type: functional; conditions: Homo sapiens, read-out: CD50 (the source's name)
Listed molecules paired with reported CC50
I only need the number, in µM, no unit after it.

molecule	CC50 [µM]
[N-]=[N+]=N[C@H]1C[C@H](n2ccc(=O)[nH]c2=O)O[C@@H]1CO [NAVURIDINE]	244

Measured CC50, Nc1nc(O)c2ncn(C3CC(F)C(CO)O3)c2n1 (stereo not given) : 237

* * *

Overview of recorded pEC50 for various molecules
test system: Human immunodeficiency virus 1; experiment: Dose required to inhibit cytopathic effect of human immunodeficiency virus replication in MT-4 cells.; format: functional; settings: Human immunodeficiency virus 1, MT4; read-out: ED50 (the source's name)
pEC50 is a log-scale quantity: -log10 of the concentration expressed in molar.

// sample Cc1cn([C@H]2C[C@H](F)[C@@H](CO)O2)c(=O)[nH]c1=O [ALOVUDINE] , its pEC50 was 9.00

pEC50 for Nc1nc(N)c2ncn(C3CC(F)C(CO)O3)c2n1 (stereo not given) is 5.35

* * *

tested on: MT4; assay: Cytotoxic dose required to reduce the viability of normal uninfected MT-4 cells.; format: functional; conditions: Homo sapiens, read-out: CD50 (the source's name)
Each record is given criterion met if its reported CC50 is strictly below 30 µM. Records at or above 30 µM are given criterion not met.

Consider the following illustrative entries.
compound	assignedLabel
Nc1ncnc2c1ncn2[C@@H]1O[C@H](CO)C[C@H]1O [CORDYCEPIN]	criterion not met
Cc1cn([C@H]2C[C@H](OC(=S)Oc3ccccc3)[C@@H](CO)O2)c(=O)[nH]c1=O	criterion not met

Does the reported CC50 of the following compound sit strictly below 30 µM? CC(=O)SC1CC(n2cc(C)c(=O)[nH]c2=O)OC1CO (configuration not stated) criterion met

# strict comparison: is reported CC50 < 30 µM? input = Cc1cn([C@H]2C[C@H](F)[C@@H](CO)O2)c(=O)[nH]c1=O [ALOVUDINE] criterion met

Determine whether this compound shows CC50 lower than 30 µM (ties excluded): CC1=CN(C2CC(N=[N+]=[N-])C(CO)O2)CN=C1NO (configuration not stated) criterion not met

Please state whether CC50 is below 30 µM for "[N-]=[N+]=N[C@H]1C[C@H](n2ccc(N)nc2=O)O[C@@H]1CO" criterion not met

* * *

Listed below: CC50 values for each entry.
test system: MT4; test: Cytotoxic dose required to reduce the viability of normal uninfected MT-4 cells.; format: functional; conditions: Homo sapiens, read-out: CD50 (the source's name)

Below: 2 molecules and their reported CC50.
molecule	studyTarget	CC50
Nc1ncnc2c1ncn2[C@@H]1O[C@H](CO)[C@H]2O[C@H]21	MT4	> 500 µM
Nc1ncnc2c1ncn2C1OC(CO)CC1Cl (stereo not drawn)	MT4	> 500 µM

Let us examine a further case.
What the record says about "Nc1ncnc2c1ncn2[C@@H]1O[C@H](CO)[C@@H]2O[C@@H]21" : CC50 is > 100 µM

* * *

system: Human immunodeficiency virus 1; assay: Dose required to inhibit cytopathic effect of human immunodeficiency virus replication in MT-4 cells.; type: functional; settings: Human immunodeficiency virus 1, MT4; read-out: ED50 (the source's name)
parameter: EC50

molecule	studyTarget	EC50
Nc1ncnc2c1ncn2C1OC(CO)CC1Cl (stereo not drawn)	Human immunodeficiency virus 1	> 500 µM
Cc1cn([C@H]2C[C@H](N=[N+]=[N-])[C@@H](CO)O2)c(=O)nc1N	Human immunodeficiency virus 1	1.8 µM
Nc1nc(O)c2ncn(C3C=CC(CO)O3)c2n1 (stereo not drawn)	Human immunodeficiency virus 1	> 5 µM
Cc1cn(C2OC(CO)C(C#N)C2O)c(=O)[nH]c1=O (stereo not drawn)	Human immunodeficiency virus 1	> 500 µM
Cc1ccc(SC2CC(n3cc(C)c(=O)[nH]c3=O)OC2CO)cc1 (stereo not drawn)	Human immunodeficiency virus 1	> 100 µM

Kindly note the recorded EC50 for "Nc1ncnc2c1ncn2[C@@H]1O[C@H](CO)[C@H]2O[C@H]21" , which is > 500 µM

Kindly note the recorded EC50 for "Nc1nc(N)c2ncn([C@H]3C[C@H](O)[C@@H](CO)O3)c2n1" , which is > 125 µM

// recorded EC50 for "Nc1ncnc2c1ncn2[C@@H]1O[C@H](CO)[C@@H]2O[C@@H]21" : > 100 µM

GET /value?item= "Cc1cn([C@H]2C[C@H](N=[N+]=[N-])[C@@H](CO)O2)c(=O)[nH]c1=O" &field=EC50 returns 0.004 µM

Notebook: "Nc1nc(O)c2ncn([C@H]3C[C@H](O)[C@@H](CO)O3)c2n1" , EC50 read as 158 µM

Data point: "[N-]=[N+]=N[C@H]1C[C@H](n2ccc(N)nc2=O)O[C@@H]1CO" ; EC50 = 3.1 µM

Value of measured EC50 for the entry "Cc1cn([C@H]2C[C@H](OC(=S)Oc3ccccc3)[C@@H](CO)O2)c(=O)[nH]c1=O" : > 250 µM

* * *

test system: MT4; test: Cytotoxic dose required to reduce the viability of normal uninfected MT-4 cells.; format: functional; conditions: Homo sapiens, read-out: CD50 (the source's name)
parameter: CC50

compound	studyTarget	CC50
Nc1nc(N)c2ncn(C3CC(F)C(CO)O3)c2n1 (stereo unspecified)	MT4	360 µM

Fill in: MT4 CC50 for "Cc1cn([C@H]2C[C@H](N=[N+]=[N-])[C@@H](CO)O2)c(=O)nc1N" = > 1000 µM

The reported CC50 value, MT4, for "Nc1ncnc2c1ncn2[C@H]1C[C@H](O)[C@@H](CO)O1" reads > 100 µM

* * *

Recorded EC50 by entry
tested on: Human immunodeficiency virus 1; experiment: Dose required to inhibit cytopathic effect of human immunodeficiency virus replication in MT-4 cells.; assay type: functional; details: Human immunodeficiency virus 1, MT4; read-out: ED50 (the source's name)
Numeric answer only, unit µM assumed.

compound	parameter	readingUnit	observed
CC(=O)SC1CC(n2cc(C)c(=O)[nH]c2=O)OC1CO (stereo unspecified)	EC50	µM	27
O=c1ccn([C@H]2C[C@H](F)[C@@H](CO)O2)c(=O)[nH]1	EC50	µM	0.04

Continue with the next compound.
Kindly note the recorded EC50 for [N-]=[N+]=N[C@H]1C[C@H](n2ccc(=O)[nH]c2=O)O[C@@H]1CO [NAVURIDINE] , which is 0.36

* * *

tested on: MT4; assay: Cytotoxic dose required to reduce the viability of normal uninfected MT-4 cells.; format: functional; details: Homo sapiens, read-out: CD50 (the source's name)
parameter: CC50

Below, 2 compounds whose answers are already recorded.
compound	studyTarget	CC50
Nc1ncnc2c1ncn2C1OC(CO)CC1Br (stereo not drawn)	MT4	> 500 µM
Nc1ncnc2c1ncn2[C@@H]1O[C@H](CO)C[C@@H]1O	MT4	> 500 µM

Pending compound:
# CC50 of "Cc1cn([C@H]2C[C@H](N=[N+]=[N-])[C@@H](CO)O2)c(=O)[nH]c1=O" = 20 µM

* * *

tested on: Human immunodeficiency virus 1; assay: Dose required to inhibit cytopathic effect of human immunodeficiency virus replication in MT-4 cells.; assay type: functional; details: Human immunodeficiency virus 1, MT4; read-out: ED50 (the source's name)
parameter: EC50

Below, 2 molecules whose answers are already recorded.
molecule	parameter	observed
Nc1ncnc2c1ncn2[C@H]1C[C@H](O)[C@@H](CO)O1	EC50	> 100 µM
C#CC1C(CO)OC(n2cc(C)c(=O)[nH]c2=O)C1O (stereo not drawn)	EC50	> 500 µM

Consider the additional molecule presented here.
EC50 reading for Nc1ncnc2c1ncn2[C@@H]1O[C@H](CO)C[C@H]1O [CORDYCEPIN] : > 50 µM
